Test system: 362531-283-R-J2-PDC complex spheroid viability
protocolText: Anticancer human tumor 362531-283-R-J2-PDC patient-derived colon adenocarcinoma cell line growth inhibition [RAS]
assayContext: curve of first compound; second compound 0.0949 µM
pIC50: −log10 of the molar value.
Recorded pIC50, one value per entry.

### Prompt Sample CC1(C)CCC(Nc2ncc(C(F)(F)F)c(-c3c[nH]c4c(P(C)(C)=O)c(C#N)ccc34)n2)CN1 (stereo not drawn) + CCn1c(-c2cc(N3CCN(C)CC3)cnc2C(C)OC)c2c3cc(ccc31)-c1csc(n1)CC(NC(=O)C1CC1C)C(=O)N1CCCC(N1)C(=O)OCC(C)(C)C2 — what was its pIC50?
### Response < 6.52

Continuing:
### Prompt Sample Cc1nc(N2CCC3(CC2)COC(C)C3N)c(CO)nc1Sc1ccnc(N)c1Cl (stereo not drawn) + CCn1c(-c2cccnc2C(C)OC)c2c3cc(ccc31)N1CCOC(CC(NC(=O)C(C(C)C)N(C)C(=O)C3(F)CCN(C(=O)C#CC(C)(C)N(C)C)CC3)C(=O)N3CCCC(N3)C(=O)OCC(C)(C)C2)C1 — what was its pIC50?
### Response < 5.00

### Prompt Sample C=CC(=O)N1CCN(c2nc(OCC3CCCN3C)nc3c(F)c(-c4nc(N)cc(C)c4C(F)(F)F)c(Cl)cc23)C(C)C1 (stereo not drawn) + CCn1c(-c2cccnc2C(C)OC)c2c3cc(ccc31)N1CCOC(CC(NC(=O)C(C(C)C)N(C)C(=O)C3(F)CCN(C(=O)C#CC(C)(C)N(C)C)CC3)C(=O)N3CCCC(N3)C(=O)OCC(C)(C)C2)C1 — what was its pIC50?
### Response < 6.00

====

Tested on: 362531-283-R-J2-PDC complex spheroid viability
protocolText: Anticancer human tumor 362531-283-R-J2-PDC cell line growth inhibition [RAS];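 also: spheroids exposed to the agents for 7 days before readout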
assayContext: curve of first compound; second compound 0.000949 µM
pIC50: −log10 of the molar value.
measuredProperty: pIC50

The examples below pair each entry with its known result.
### Prompt Kindly state the measured pIC50 obtained for CC1(C)CCC(Nc2ncc(C(F)(F)F)c(-c3c[nH]c4c(P(C)(C)=O)c(C#N)ccc34)n2)CN1 (centres undefined) + CCn1c(-c2cc(N3CCN(C)CC3)cnc2C(C)OC)c2c3cc(ccc31)-c1csc(n1)CC(NC(=O)C1CC1C)C(=O)N1CCCC(N1)C(=O)OCC(C)(C)C2 with 362531-283-R-J2-PDC complex spheroid viability.
### Response < 6.52

### Prompt Kindly state the measured pIC50 obtained for Cc1nc(N2CCC3(CC2)COC(C)C3N)c(CO)nc1Sc1ccnc(N)c1Cl (centres undefined) + CCn1c(-c2cc(N3CCN(C)CC3)cnc2C(C)OC)c2c3cc(ccc31)-c1csc(n1)CC(NC(=O)C1CC1C)C(=O)N1CCCC(N1)C(=O)OCC(C)(C)C2 with 362531-283-R-J2-PDC complex spheroid viability.
### Response < 5.00

### Prompt Kindly state the measured pIC50 obtained for CC1(C)CCC(Nc2ncc(C(F)(F)F)c(-c3c[nH]c4c(P(C)(C)=O)c(C#N)ccc34)n2)CN1 (centres undefined) + CCn1c(-c2cccnc2C(C)OC)c2c3cc(ccc31)N1CCOC(CC(NC(=O)C(C(C)C)N(C)C(=O)C3(F)CCN(C(=O)C#CC(C)(C)N(C)C)CC3)C(=O)N3CCCC(N3)C(=O)OCC(C)(C)C2)C1 with 362531-283-R-J2-PDC complex spheroid viability.
### Response < 6.52

Continuing:
### Prompt Kindly state the measured pIC50 obtained for CC1(O)CCCC1n1c(=O)c(C(F)F)cc2cnc(NC3CCN(S(C)(=O)=O)CC3)nc21 (centres undefined) + CCn1c(-c2cccnc2C(C)OC)c2c3cc(ccc31)N1CCOC(CC(NC(=O)C(C(C)C)N(C)C(=O)C3(F)CCN(C(=O)C#CC(C)(C)N(C)C)CC3)C(=O)N3CCCC(N3)C(=O)OCC(C)(C)C2)C1 with 362531-283-R-J2-PDC complex spheroid viability.
### Response < 5.00
